MEASURED_ON: human orexin-1 receptor (Homo sapiens (Human), UniProt O43613)
Sequence (O43613 whole entry): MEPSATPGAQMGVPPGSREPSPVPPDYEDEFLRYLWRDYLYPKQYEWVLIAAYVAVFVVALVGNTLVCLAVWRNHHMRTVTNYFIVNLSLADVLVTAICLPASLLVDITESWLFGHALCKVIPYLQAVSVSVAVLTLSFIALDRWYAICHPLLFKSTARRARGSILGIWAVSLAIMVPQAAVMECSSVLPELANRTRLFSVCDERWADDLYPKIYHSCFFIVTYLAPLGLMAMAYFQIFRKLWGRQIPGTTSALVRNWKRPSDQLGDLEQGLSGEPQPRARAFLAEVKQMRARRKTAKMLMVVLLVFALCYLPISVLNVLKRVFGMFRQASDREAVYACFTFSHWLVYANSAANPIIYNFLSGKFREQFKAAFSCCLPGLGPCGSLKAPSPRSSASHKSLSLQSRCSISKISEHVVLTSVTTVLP
MEASUREMENT_DESCRIPTION: In vitro assay: intracellular calcium measurements (FLIPR), antagonistic activity
CONDITIONS_USED: CHO cells expressing human orexin-1 receptor, orexin-A agonist, geometric mean, read-out: IC50 Ox1
IC50 under 100 nM gets Met, anything at or over 100 nM gets Not met.

> print(dat)
                                   compound                               measured.on  assigned.class
1  C=C1CC(c2nc3cc(Cl)c(C)cc3[nH]2)N(C(=O)c2nc(C3CC3)sc2-c2cccc(C)c2)C1 (racemic)  human orexin-1 receptor (Homo sapiens (Human), UniProt O43613)             Met
2  Cc1ccc(C(=O)N2CC[C@H](C)[C@H]2c2nc3cc(C)c(C)cc3[nH]2)c(-n2nccn2)c1  human orexin-1 receptor (Homo sapiens (Human), UniProt O43613)             Met
3  Cc1ccc(-c2ccc(OC(F)(F)F)cc2)c(C(=O)N2CCC[C@@]2(C)c2nc3cc(C(F)(F)F)ccc3[nH]2)c1  human orexin-1 receptor (Homo sapiens (Human), UniProt O43613)         Not met
4  Cc1nc(C(=O)N2CCCC2c2nc3cc(F)c(Cl)cc3[nH]2)c(-c2cccc(Cl)c2)s1 (stereo not shown)  human orexin-1 receptor (Homo sapiens (Human), UniProt O43613)         Not met
5  COc1ccc2nc([C@@H]3C[C@@H](OC)CN3C(=O)c3cc(Cl)ccc3-n3nccn3)[nH]c2c1  human orexin-1 receptor (Homo sapiens (Human), UniProt O43613)         Not met
6  Cc1c(Cl)ccc2[nH]c([C@]3(C)CCCN3C(=O)c3nc(-c4cccc(C#N)c4)sc3-c3ccc(F)cc3)nc12  human orexin-1 receptor (Homo sapiens (Human), UniProt O43613)             Met

Now consider a different compound.
Is the reported IC50 for Cc1nc(C(=O)N2CC[C@H](C)[C@H]2c2nc3cc(Cl)c(C)cc3[nH]2)c(-c2cc(F)cc(F)c2)s1 strictly below 100 nM?
Met

----------
MEASURED_ON: human orexin-1 receptor (Homo sapiens (Human))
MEASUREMENT_DESCRIPTION: In vitro assay: intracellular calcium measurements (FLIPR), antagonistic activity
CONDITIONS_USED: CHO cells expressing human orexin-1 receptor, orexin-A agonist, geometric mean, read-out: IC50 Ox1
MEASURE_NAME: IC50 (µM)
Field format: number, assumed µM, no unit text.

Recorded IC50, per entry:
> print(dat)
                                   compound  recorded.measurement
1  CSc1ccc2[nH]c([C@@H]3CCCN3C(=O)c3nc(C)ccc3-n3nccn3)nc2c1 [Ex. 1.180]                  1.49
2  C=C1CN(C(=O)c2cc(C)ccc2-n2nccn2)C(C)(c2nc3cc(OC)ccc3[nH]2)C1 (stereo not shown) [Ex. 6.156]                 0.034

Considering CSc1cccc2[nH]c([C@@H]3CCCN3C(=O)c3nc(C)ccc3-n3nccn3)nc12 [Ex. 1.175] , its IC50 with human orexin-1 receptor (Homo sapiens (Human)) was recorded as 0.528

Considering C=C1C[C@@H](c2nc3cc(C)c(C)cc3[nH]2)N(C(=O)c2c(F)cccc2-n2nccn2)C1 [Ex. 6.191] , its IC50 with human orexin-1 receptor (Homo sapiens (Human)) was recorded as 0.134

Considering CCn1c([C@]2(C)CCCN2C(=O)c2cc(C)c(C)cc2-n2nccn2)nc2cc(OC)c(OC)cc21 [Ex. 7.14] , its IC50 with human orexin-1 receptor (Homo sapiens (Human)) was recorded as 0.023
